Tested on: UACC-62
protocol.description: NCI tumour cell line growth inhibition, 48 h
The source made the active and inactive calls. Rule as the data show it: active = GI50 up to about 1.1 µM and inactive = higher.
quantity.name: GI50

Consider the following items and state reported GI50 for each.
1. O=C(NCc1cccc2ccccc12)N/N=C\c1ccc(Cl)cc1
2. COc1cccc(-c2nc(-c3cnccn3)n(C3OC(CO)C(O)C3O)n2)c1 (centres undefined)
3. c1cc2c3ccsc3c3sccc3c2s1
4. C=CSCCC(N)C(=O)O (centres undefined)
5. COC(=O)CCC(=O)C(C#N)c1ccc(Cl)cc1Cl (centres undefined)

RESULT:
> 100 µM (inactive)
> 100 µM (inactive)
> 100 µM (inactive)
> 100 µM (inactive)
> 100 µM (inactive)

----------
Please provide measured GI50 for the entries that follow.
Tested on: RXF 393
protocol.description: NCI tumour cell line growth inhibition, 48 h
Calls of active or inactive are those of the source. No stated cut-off is given here; in the data, active = GI50 up to about 1.1 µM and inactive = higher.

Recorded GI50, per entry:
{"columns": ["compound", "GI50"],
 "data": [
  ["ClC1=C(Cl)C2OC3C=CCC3OC2C(Cl)=C1Cl (stereo not given)", "28.4 µM (inactive)"],
  ["COc1cc(C2S/C(=C/c3ccccc3)C(=O)N2c2cc(Cl)c(Cl)cc2Cl)cc(OC)c1OC (stereo not given)", "> 100 µM (inactive)"]
]}

I need GI50 for every entry listed below, if you could help.
1. N#CC1C(=O)NC(=O)C1=O (stereo not given)
2. CCN(CC)CCC1CCCCN1CC(=O)N1c2ccccc2NC(=O)CC1C (stereo not given)
3. CN(C)CCNc1ccc2ncn3c4ccc(O)cc4c(=O)c1c23
4. NNC(=O)c1cc(=O)[nH][nH]1
5. Cn1cnc(C(N)=[Se])c1N

RESULT:
> 100 µM (inactive)
> 100 µM (inactive)
0.617 µM (active)
> 100 µM (inactive)
1.6 µM (inactive)

Below is a list of compounds. For each, state its recorded GI50.
1. C=C(C)[C@@H]1CC[C@]2(C(=O)O)CC[C@]3(C)[C@H](CC[C@@H]4[C@@]5(C)CC[C@H](O)C(C)(C)[C@@H]5CC[C@]43C)[C@@H]12 [BETULINIC ACID]
2. Cc1cc(Cl)ccc1NC(=O)C(=O)Cc1nc2ccccc2o1
3. Nc1nc(S)nc(C(=O)Nc2nccs2)c1-c1ccccc1
4. Nc1nnnn1NC(=O)NCCCl
5. CN1C(=O)C(C#N)C2C[C@@]1(C)Oc1ccccc12 (stereo not given in full)

RESULT:
2.64 µM (inactive)
> 100 µM (inactive)
> 100 µM (inactive)
> 10 µM (inactive)
> 100 µM (inactive)

Go through the items and report each one's GI50.
1. C=CSCCC(N)C(=O)O (stereo not given)
2. C/C(=C\CC[C@]1(C)OC(C)(C)OC1CC/C(C)=C/CO[Si](c1ccccc1)(c1ccccc1)C(C)(C)C)CC/C=C/CO[Si](C)(C)C(C)(C)C (stereo not given in full)
3. O=C1OCOC2(CCCC2)C1c1ccccc1 (stereo not given)
4. NC1CC2NC3CCCCC3NC2CC1N (stereo not given)
5. CNC(=O)NS(=O)(=O)c1ccc(C)cc1.NS(=O)O
6. CO[C@@H]1[C@H](O)CC[C@]2(CO2)[C@H]1[C@@]1(C)O[C@@H]1CC=C(C)C

RESULT:
["> 100 µM (inactive)", "> 100 µM (inactive)", "> 100 µM (inactive)", "23.7 µM (inactive)", "> 100 µM (inactive)", "> 200 µM (inactive)"]

----------
System: CAKI-1
protocol.description: NCI tumour cell line growth inhibition, 48 h
The source made the active and inactive calls. No stated cut-off is given here; in the data, active = GI50 up to about 1.1 µM and inactive = higher.
quantity.name: GI50

# count of solved cases: 5
{"columns": ["compound", "GI50"],
 "data": [
  ["CCc1cc(C)cc2[n+]1CC=C2.[O-][Cl+3]([O-])([O-])[O-]", "28.2 µM (inactive)"],
  ["C=C(C)[C@H]1C=C[C@@H](OC(=O)c2cccnc2)[C@@]23CO[C@@](C)([C@H](OC(=O)c4cccnc4)[C@@]4(OC(C)=O)C[C@H](C)[C@H](OCCC)[C@@H]4[C@H]2OC(C)=O)[C@H]13", "> 15 µM (inactive)"],
  ["Cc1ccc(N2C3=C(CC4=C2CC(C)(C)CC4=O)C(=O)CC(C)(C)C3)cc1", "> 100 µM (inactive)"],
  ["CC(C(=O)ON1C(=O)CCC1=O)c1ccc(C(=O)c2ccccc2)s1 (stereo unspecified)", "> 100 µM (inactive)"],
  ["CCN(CC)Cc1cc(/N=N\\c2c(O)ccc3c(/N=N\\c4ccc(O)c(CN(CC)CC)c4)c(O)ccc23)ccc1O", "2.1 µM (inactive)"]
]}

Please give GI50, item by item, for the list that follows.
1. CCCCCCCCCC1CC(=O)OC2=C1C(=O)CCC2 (stereo unspecified)
2. CNc1ccc([N+](=O)[O-])c2c(NCCCN(C)C)ccnc12
3. CN(C)CCNc1ccc2ncn3c4ccc(O)cc4c(=O)c1c23
4. O=C(O)C#Cc1ccc([N+](=O)[O-])cc1
5. CC(=O)c1ccc(NC(=O)/C(Cc2ccccn2)=N/NC(=O)C[N+](C)(C)C)cc1
6. Cc1c(C#N)c(N)[nH]c(=S)c1C#N
7. COc1cc(NCc2ccc3nc(-c4ccccc4)c(N)nc3c2)cc(OC)c1OC

RESULT:
["> 100 µM (inactive)", "> 100 µM (inactive)", "0.224 µM (active)", "> 100 µM (inactive)", "> 100 µM (inactive)", "> 100 µM (inactive)", "28.8 µM (inactive)"]

For the 4 compounds below, give their GI50 values.
1. CC(C)(C)C(O)CC(O)(C(F)(F)F)C(F)(F)F (stereo unspecified)
2. O=C(CC(O)(C(F)(F)Cl)C(F)(F)Cl)CC(O)(C(F)(F)Cl)C(F)(F)Cl
3. Cc1nn2c(C(=O)N/N=C/c3ccccc3O)c(C)nc2s1
4. COC(=O)CCC(=O)N1Cc2cc(C)ccc2N(C(=O)CCC(=O)OC)Cc2cc(C)ccc21

RESULT:
["> 100 µM (inactive)", "2 µM (inactive)", "> 100 µM (inactive)", "> 100 µM (inactive)"]

Give measured GI50 for every item shown.
1. COc1ccc(C(SC2C(O)C(CO)OC2n2ccc(=O)[nH]c2=O)(c2ccccc2)c2ccc(OC)cc2)cc1 (stereo unspecified)
2. CC(C)OCN1COCN/C1=N/C#N

RESULT:
1: 30.4 µM (inactive); 2: > 100 µM (inactive)

Count: 3. Required value per item: GI50.
1. CN1C(=O)C(C#N)C2C[C@@]1(C)Oc1ccccc12 (stereo partly specified)
2. Nc1ccc2c(c1)S(=O)(=O)c1cc(N)ccc1-2
3. N#C/C(=C\c1ccc(Cl)cc1)c1nc2ccccc2c(=O)[nH]1

RESULT:
> 100 µM (inactive)
> 100 µM (inactive)
> 100 µM (inactive)

----------
Tested on: DLD-1
protocol.description: NCI tumour cell line growth inhibition, 48 h
Calls of active or inactive are those of the source. No stated cut-off is given here; in the data, active = GI50 up to about 1.1 µM and inactive = higher.
Form entry, call: pick from active, inactive

{"columns": ["compound", "group"],
 "data": [
  ["CCCN(CCC)C(=O)c1nc(N)nc(-c2ccc(OC)cc2)c1-c1ccc(OC)cc1", "inactive"],
  ["C[C@]12CC[C@@H]3c4ccc(OC(=O)N(CCCl)CCCl)cc4CC[C@H]3[C@@H]1CC[C@@H]2O", "active"],
  ["c1ccc(C2N3CCCCC3[C@@H]3c4[nH]c5ccccc5c4CCN23)nc1 (some centres not stated)", "inactive"],
  ["CCCCN/C(=N/C#N)NCc1ccccc1", "inactive"],
  ["Cc1cc(Cl)ccc1NC(=O)C(=O)Cc1nc2ccccc2o1", "inactive"]
]}

QUERY: # lookup: test call for "COc1cc2c(c(OC)c1OC)-c1ccc(OC)c(=O)cc1[C@@H](NC(=O)c1ccccc1)CC2"
RESULT: active

QUERY: Kindly provide the recorded test outcome for the following compound: "CN(C)CCNc1ccc2ncn3c4ccc(O)cc4c(=O)c1c23"
RESULT: active

----------
Test system: HCC 2998
protocol.description: NCI tumour cell line growth inhibition, 48 h
The source made the active and inactive calls. Rule as the data show it: active = GI50 up to about 1.1 µM and inactive = higher.
Would you kindly list GI50 for each of these compounds?

Worked cases, GI50 given:
{"columns": ["compound", "quantity.name", "measured.value"],
 "data": [
  ["Brc1ccc2c(-c3nc(-c4c[nH]c5ccc(Br)cc45)cs3)c[nH]c2c1", "GI50", "2.48 µM (inactive)"],
  ["CCN1C/C(=C\\c2ccc(Cl)cc2)c2nc(N)c(C#N)c(-c3ccc(Cl)cc3)c2C1", "GI50", "> 100 µM (inactive)"],
  ["Cc1ccccc1S(=O)(=O)OC1NS(=O)(=O)c2ccccc21 (centres undefined)", "GI50", "> 100 µM (inactive)"]
]}

QUERY: Check the records and state GI50 for CC(C)CC1C(=O)NCCC(NC(=O)C(Cc2ccc(OC(C)(C)C)cc2)NC(=O)OC(C)(C)C)C(=O)NC(Cc2ccccc2)C(=O)NC(Cc2ccccc2)NC1=O (centres undefined)
RESULT: 17.3 µM (inactive)
